// inhibition at 1 µM lookup, one value per entry
Molecular target: TEK/Tie-2 intracellular kinase domain (Homo sapiens, UniProt Q02763)
Construct: residues 775 to 1124, with methionine added at the N-terminus; made in house; host or cells: baculovirus expression system
Sequence (Q02763 775-1124): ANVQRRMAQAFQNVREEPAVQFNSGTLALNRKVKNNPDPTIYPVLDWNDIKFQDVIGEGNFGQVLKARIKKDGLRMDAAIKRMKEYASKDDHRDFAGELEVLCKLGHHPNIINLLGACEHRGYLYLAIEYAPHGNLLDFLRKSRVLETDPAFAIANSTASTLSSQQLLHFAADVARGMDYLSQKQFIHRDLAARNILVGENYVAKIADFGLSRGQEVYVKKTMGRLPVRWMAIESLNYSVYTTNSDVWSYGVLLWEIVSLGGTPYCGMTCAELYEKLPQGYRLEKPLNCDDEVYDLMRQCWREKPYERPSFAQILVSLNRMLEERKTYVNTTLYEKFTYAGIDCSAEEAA
Assay: TEK/Tie-2 spectrophotometric assay
Assay type: biochemical
Conditions: read-out: TEK-P percent inhibition
The figure you give is taken to be in %; do not add the unit.

Some entries whose results are on file:
{"columns": ["COMPOUND", "inhibition at 1 µM (%)"],
 "data": [
  ["COc1ccc(Nc2cc(CCc3cccc(C(=O)Nc4cc(Cl)c(N(C)C)c(Cl)c4)c3)[nH]n2)cn1 [Example G-7]", 14],
  ["COc1ccc(Nc2cc(CCc3cccc(C(=O)Nc4ccc(N5CCCC5)c(C(F)(F)F)c4)c3)[nH]n2)cn1 [Example G-8]", 62],
  ["CC(C)(C)c1cc(C(=O)Nc2cccc(CSc3ncnc4[nH]ncc34)c2)ccc1O [Example V-4]", 40]
]}

The record that follows has no inhibition at 1 µM shown yet.
Sure, the documented inhibition at 1 µM for COc1ccc(Nc2cc(COc3cc(C(=O)Nc4ccc(N5CCCC5)c(C(F)(F)F)c4)ccc3F)[nH]n2)cn1 [Example J-2] is 17
